# TARGET_DESC: T1, dog iRhom2 full length wild type, T7-tagged (dog, UniProt Q00M95 1-827)
# T1 construct: whole, on cells; on MEF-DKO cells; also called Dog-iR2-FL-WT-T7
# T1 sequence: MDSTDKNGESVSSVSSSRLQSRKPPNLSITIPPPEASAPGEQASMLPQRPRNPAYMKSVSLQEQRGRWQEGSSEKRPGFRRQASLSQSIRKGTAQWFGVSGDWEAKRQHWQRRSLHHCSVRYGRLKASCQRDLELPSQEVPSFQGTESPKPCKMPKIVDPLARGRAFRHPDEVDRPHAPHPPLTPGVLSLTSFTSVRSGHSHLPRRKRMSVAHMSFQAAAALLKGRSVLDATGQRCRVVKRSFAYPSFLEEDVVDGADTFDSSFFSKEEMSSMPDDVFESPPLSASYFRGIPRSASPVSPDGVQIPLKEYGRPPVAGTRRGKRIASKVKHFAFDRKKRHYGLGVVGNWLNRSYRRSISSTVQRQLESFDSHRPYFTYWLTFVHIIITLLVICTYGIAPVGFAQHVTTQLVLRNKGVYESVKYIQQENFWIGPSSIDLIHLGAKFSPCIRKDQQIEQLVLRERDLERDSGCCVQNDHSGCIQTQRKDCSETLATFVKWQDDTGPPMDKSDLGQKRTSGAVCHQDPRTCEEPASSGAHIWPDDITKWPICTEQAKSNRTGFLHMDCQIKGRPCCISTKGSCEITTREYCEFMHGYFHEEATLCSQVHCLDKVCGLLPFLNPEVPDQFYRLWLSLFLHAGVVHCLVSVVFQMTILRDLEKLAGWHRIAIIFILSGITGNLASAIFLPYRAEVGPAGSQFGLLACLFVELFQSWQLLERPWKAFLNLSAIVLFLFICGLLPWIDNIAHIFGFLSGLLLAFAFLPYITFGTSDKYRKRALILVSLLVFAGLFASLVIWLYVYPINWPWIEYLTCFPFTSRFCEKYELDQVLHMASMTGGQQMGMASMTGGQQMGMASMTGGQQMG
# TEST_SUMMARY: FACS, MEF-DKO cells; via representative antibody 16
METRIC: binding result

[[record]]
binder = "antibody 22 (antibody, V domains shown, mouse IgG, kappa light chain; also called clone #22; purified antibody 22) VH: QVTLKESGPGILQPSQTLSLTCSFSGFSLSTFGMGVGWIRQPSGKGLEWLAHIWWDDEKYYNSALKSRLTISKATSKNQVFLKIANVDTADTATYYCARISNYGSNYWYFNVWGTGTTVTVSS VL: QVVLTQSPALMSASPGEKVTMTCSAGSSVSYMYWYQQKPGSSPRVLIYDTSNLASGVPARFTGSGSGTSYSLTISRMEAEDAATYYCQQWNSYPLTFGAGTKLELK"
metric = "binding result"
result = "binds"

[[record]]
binder = "antibody 43 (antibody, V domains shown, mouse IgG, kappa light chain; also called clone #43; purified antibody 43) VH: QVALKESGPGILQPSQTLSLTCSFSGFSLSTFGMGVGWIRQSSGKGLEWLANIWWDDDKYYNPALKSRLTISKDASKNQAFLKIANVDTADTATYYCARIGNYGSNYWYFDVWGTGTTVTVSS VL: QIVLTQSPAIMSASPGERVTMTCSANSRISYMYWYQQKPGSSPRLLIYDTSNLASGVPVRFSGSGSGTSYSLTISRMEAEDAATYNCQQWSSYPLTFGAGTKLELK"
metric = "binding result"
result = "binds"

